tested-system: T1, monkey CD22 on HEK293T-monkey CD22 cells (monkey)
T1 construct: full-length entry expressed on stably transfected HEK293T cells
T1 chain: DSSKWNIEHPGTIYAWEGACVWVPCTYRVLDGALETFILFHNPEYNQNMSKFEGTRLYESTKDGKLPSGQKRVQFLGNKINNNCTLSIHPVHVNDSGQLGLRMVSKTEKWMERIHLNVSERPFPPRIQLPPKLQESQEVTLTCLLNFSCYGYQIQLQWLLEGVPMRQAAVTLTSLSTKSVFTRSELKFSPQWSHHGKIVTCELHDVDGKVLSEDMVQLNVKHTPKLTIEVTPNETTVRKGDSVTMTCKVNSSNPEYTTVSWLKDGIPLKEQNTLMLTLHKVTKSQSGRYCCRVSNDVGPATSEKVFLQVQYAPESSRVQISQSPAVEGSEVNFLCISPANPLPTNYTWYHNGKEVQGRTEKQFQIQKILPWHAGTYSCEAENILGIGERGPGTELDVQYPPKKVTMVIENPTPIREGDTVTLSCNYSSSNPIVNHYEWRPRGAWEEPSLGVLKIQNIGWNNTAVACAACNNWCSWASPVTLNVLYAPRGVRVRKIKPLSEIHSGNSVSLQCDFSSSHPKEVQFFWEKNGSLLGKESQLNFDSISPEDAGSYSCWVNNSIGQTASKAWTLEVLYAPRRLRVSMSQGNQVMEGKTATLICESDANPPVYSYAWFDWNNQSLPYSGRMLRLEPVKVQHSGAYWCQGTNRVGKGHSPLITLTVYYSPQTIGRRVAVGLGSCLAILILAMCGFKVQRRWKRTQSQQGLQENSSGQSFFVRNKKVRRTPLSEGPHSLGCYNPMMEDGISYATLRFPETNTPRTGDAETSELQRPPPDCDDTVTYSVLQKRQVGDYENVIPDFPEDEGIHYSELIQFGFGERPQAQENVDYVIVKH
method-description: FACS, HEK293T-monkey CD22 cells
For each entry below, report its pEC50 value.
Give bare numbers, as −log10 of the molar value.

Reference set, count: 2
- binder: "F2.173.9 (antibody, human IgG1, lambda, V domains shown, human-murine chimeric IgG1 lambda) VH: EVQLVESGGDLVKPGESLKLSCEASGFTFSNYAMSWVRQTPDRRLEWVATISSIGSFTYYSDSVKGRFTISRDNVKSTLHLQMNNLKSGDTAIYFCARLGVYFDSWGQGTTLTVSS VL: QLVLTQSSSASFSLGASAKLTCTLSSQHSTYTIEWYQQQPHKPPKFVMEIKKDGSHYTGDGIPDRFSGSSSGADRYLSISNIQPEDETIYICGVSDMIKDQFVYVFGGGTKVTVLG"
  result-type: "pEC50"
  value-observed: 8.68
- binder: "F2.151.13 (antibody, human IgG1, lambda, V domains shown, human-murine chimeric IgG1 lambda) VH: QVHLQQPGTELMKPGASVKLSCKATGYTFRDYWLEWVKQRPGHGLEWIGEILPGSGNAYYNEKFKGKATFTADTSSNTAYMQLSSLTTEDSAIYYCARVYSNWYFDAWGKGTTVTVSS VL: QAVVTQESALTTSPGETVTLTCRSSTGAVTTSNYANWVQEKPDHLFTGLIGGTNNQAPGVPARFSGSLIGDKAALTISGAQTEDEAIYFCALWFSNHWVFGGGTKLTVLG"
  result-type: "pEC50"
  value-observed: 8.90

// next item, pEC50 requested
Problem: Using the record for HA22-hIgG1 (antibody, V domains shown) VH: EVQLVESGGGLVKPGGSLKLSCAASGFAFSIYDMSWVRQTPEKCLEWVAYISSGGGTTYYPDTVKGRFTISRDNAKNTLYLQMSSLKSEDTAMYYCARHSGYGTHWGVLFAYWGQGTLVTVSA VL: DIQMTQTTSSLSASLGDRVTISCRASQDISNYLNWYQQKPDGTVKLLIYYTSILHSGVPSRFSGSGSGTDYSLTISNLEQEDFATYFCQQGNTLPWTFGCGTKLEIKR , report its pEC50.
Solution: 8.80
